- Protocol notes: Selectivity index, ratio of CC50 for human MT-4 cells to EC50 for HIV-1 infected in MT-4 cells
- Format: toxicity, cell-based
- Test settings: read-out: Ratio CC50/EC50
Counter-ions that a name gives are not always drawn.
Response field class: enum, chosen by comparing selectivity ratio against bottom bin (below 10000), middle bin (10000 to below 800000), top bin (800000 or more)

Below are worked cases with known answers.
CC(C)OC(=O)[C@H](C)N[P@](=O)(CO[C@H](C)Cn1cnc2c(N)ncnc21)Oc1ccc(C[C@H](NC(=O)OCc2ccccc2)C(=O)OC(C)C)cc1 : middle bin
CC(C)OC(=O)[C@H](C)N[P@](=O)(CO[C@H](C)Cn1cnc2c(N)ncnc21)Oc1ccc(C[C@H](NC(=O)CCc2ccccc2)C(=O)OC2CCCC2)cc1 : top bin
CC(C)OC(=O)[C@H](C)N[P@](=O)(CO[C@H](C)Cn1cnc2c(N)ncnc21)Oc1ccc(C[C@H](NCCCc2ccccc2)C(=O)OC2CCCC2)cc1 : middle bin
CC(C)OC(=O)[C@H](C)N[P@@](=O)(CO[C@H](C)Cn1cnc2c(N)ncnc21)Oc1ccc(C[C@@H](NC(=O)OCc2ccccc2)C(=O)OC2CCCC2)cc1 : middle bin
CC(C)CCOC(=O)[C@H](Cc1ccc(O[P@@](=O)(CO[C@H](C)Cn2cnc3c(N)ncnc32)N[C@@H](C)C(=O)OC(C)C)cc1)NC(=O)OCc1ccccc1 : middle bin

Class for CC(C)OC(=O)[C@H](C)N[P@](=O)(CO[C@H](C)Cn1cnc2c(N)ncnc21)Oc1ccc(C[C@H](NC(=O)OCc2ccccc2)C(=O)CC2CCCC2)cc1 ?
top bin

For the record CC(C)OC(=O)OCOP(=O)(CO[C@H](C)Cn1cnc2c(N)ncnc21)OCOC(=O)OC(C)C [TENOFOVIR DISOPROXIL FUMARATE] , report the class its selectivity ratio corresponds to.
bottom bin

Which category does the recorded selectivity ratio put CC(C)OC(=O)[C@H](C)N[P@](=O)(CO[C@H](C)Cn1cnc2c(N)ncnc21)Oc1ccc(C[C@H](NC(=O)OCc2ccccc2)C(=O)NC2CCCC2)cc1 in?
bottom bin

----------
- Protocol notes: Drug uptake in human CCRF-CEM cells assessed as intracellular intact prodrug level at 50 uM after 45 mins by ECHO-MS analysis
- Assay type: ADME, cell-based
- Test settings: 0.75 h
Assay endpoint: Drug uptake (pmol)
Just the number in pmol, nothing appended.

CC(C)OC(=O)[C@H](C)N[P@@](=O)(CO[C@H](C)Cn1cnc2c(N)ncnc21)Oc1ccc(C[C@H](NC(=O)CCc2ccccc2)C(=O)OC2CCCC2)cc1 : 0.12
CC(C)OC(=O)[C@H](C)N[P@@](=O)(CO[C@H](C)Cn1cnc2c(N)ncnc21)Oc1ccc(C[C@H](NC(=O)OCc2ccccc2)C(=O)OC2CCCC2)cc1 : 0.22

Complete the entry with Drug uptake for CC(C)OC(=O)[C@H](C)N[P@](=O)(CO[C@H](C)Cn1cnc2c(N)ncnc21)Oc1ccccc1.CC(C)OC(=O)[C@H](C)N[P@](=O)(CO[C@H](C)Cn1cnc2c(N)ncnc21)Oc1ccccc1.O=C(O)/C=C/C(=O)O [TENOFOVIR ALAFENAMIDE FUMARATE]
0.3

----------
- Protocol notes: Cytotoxicity against in human MT4 cells after 5 days by XTT assay
- Assay type: cell-based
- Test settings: time 5 day
Assay endpoint: CC50 at 120 h (µM)
All answers are understood in µM, so give the number only.

Example entries begin here.
CC(C)OC(=O)[C@H](C)NP(=O)(CO[C@H](C)Cn1cnc2c(N)ncnc21)Oc1ccc(C[C@H](NC(=O)OCc2ccccc2)C(=O)OC2CCCC2)cc1 (stereo partly drawn) : 8.3
COC(=O)[C@H](Cc1ccc(O[P@@](=O)(CO[C@H](C)Cn2cnc3c(N)ncnc32)N[C@@H](C)C(=O)OC(C)C)cc1)NC(=O)OCc1ccccc1 : 16

Switching to the query record.
Consider the compound CC(C)OC(=O)[C@H](C)N[P@](=O)(CO[C@H](C)Cn1cnc2c(N)ncnc21)Oc1ccc(C[C@H](NC(=O)OCc2ccccc2)C(=O)CC2CCCC2)cc1 and give its recorded CC50 at 120 h.
9.2

----------
- Protocol notes: Cytotoxicity against in human MT4 cells after 5 days by XTT assay
- Type: cell-based
- Test settings: time 5 day
In this section we review reported CC50 at 120 h values for a set of compounds.
A number alone suffices; assume µM.

CC(C)OC(=O)[C@H](C)N[P@](=O)(CO[C@H](C)Cn1cnc2c(N)ncnc21)Oc1ccc(C[C@H](NC(=O)OCc2ccccc2)C(=O)OC(C)C)cc1 : 10

Specify measured CC50 at 120 h for CC(C)OC(=O)[C@H](C)N[P@@](=O)(CO[C@H](C)Cn1cnc2c(N)ncnc21)Oc1ccc(C[C@H](NC(=O)OCc2ccccc2)C(=O)CC2CCCC2)cc1 .
7.6

Let me know recorded CC50 at 120 h for CC(C)OC(=O)[C@H](C)NP(=O)(CO[C@H](C)Cn1cnc2c(N)ncnc21)Oc1ccc(C[C@H](NC(=O)OCc2ccccc2)C(=O)OCc2cccs2)cc1 (stereo partly specified) , thanks.
8.2

Supply measured CC50 at 120 h of CC(C)OC(=O)[C@H](C)N[P@@](=O)(CO[C@H](C)Cn1cnc2c(N)ncnc21)Oc1ccc(C[C@H](NCCCc2ccccc2)C(=O)OC2CCCC2)cc1 in your reply.
7.6

----------
This listing pairs molecules with measured Drug uptake.
- Protocol notes: Drug uptake in human CCRF-CEM cells assessed as released tenofovir level at 50 uM after 45 mins by ECHO-MS analysis
- Assay type: ADME, cell-based
- Test settings: 0.75 h
Quick note: give the figure in pmol, leave out the unit.

Before answering, review these 5 worked examples.
CC(C)OC(=O)[C@H](C)N[P@](=O)(CO[C@H](C)Cn1cnc2c(N)ncnc21)Oc1ccc(C[C@H](NC(=O)CCc2ccccc2)C(=O)OC2CCCC2)cc1 : 64.26
CC(C)OC(=O)[C@H](C)N[P@@](=O)(CO[C@H](C)Cn1cnc2c(N)ncnc21)Oc1ccc(C[C@H](NC(=O)CCc2ccccc2)C(=O)OC2CCCC2)cc1 : 27.89
CC(C)OC(=O)[C@H](C)N[P@](=O)(CO[C@H](C)Cn1cnc2c(N)ncnc21)Oc1ccc(C[C@H](NC(=O)OCc2ccccc2)C(=O)OC2CCCC2)cc1 : 73.7
CC(C)OC(=O)[C@H](C)N[P@@](=O)(CO[C@H](C)Cn1cnc2c(N)ncnc21)Oc1ccc(C[C@H](NC(=O)OCc2ccccc2)C(=O)CC2CCCC2)cc1 : 78.88
CC(C)OC(=O)[C@H](C)N[P@](=O)(CO[C@H](C)Cn1cnc2c(N)ncnc21)Oc1ccc(C[C@H](NC(=O)OCc2ccccc2)C(=O)CC2CCCC2)cc1 : 148.09

Annotate the molecule CC(C)OC(=O)[C@H](C)N[P@@](=O)(CO[C@H](C)Cn1cnc2c(N)ncnc21)Oc1ccc(C[C@H](NCCCc2ccccc2)C(=O)CC2CCCC2)cc1 with its measured Drug uptake.
50.12

Identify the reported Drug uptake for the following entry. CC(C)OC(=O)[C@H](C)N[P@](=O)(CO[C@H](C)Cn1cnc2c(N)ncnc21)Oc1ccc(C[C@H](NCCCc2ccccc2)C(=O)CC2CCCC2)cc1
304.5

Return Drug uptake (reported value) for this molecule: CC(C)OC(=O)[C@H](C)N[P@](=O)(CO[C@H](C)Cn1cnc2c(N)ncnc21)Oc1ccccc1.CC(C)OC(=O)[C@H](C)N[P@](=O)(CO[C@H](C)Cn1cnc2c(N)ncnc21)Oc1ccccc1.O=C(O)/C=C/C(=O)O [TENOFOVIR ALAFENAMIDE FUMARATE]
21.19

Given the molecule CC(C)OC(=O)[C@H](C)N[P@@](=O)(CO[C@H](C)Cn1cnc2c(N)ncnc21)Oc1ccc(C[C@H](NC(=O)OCc2ccccc2)C(=O)OC2CCCC2)cc1 , write its reported Drug uptake.
20.25

----------
# Lookup of reported remaining at 0.5 h, 5 µM keyed by entry
- Protocol notes: Stability of compound in pooled human hepatic microsomes assessed as compound remaining at 5 uM measured upto 30 mins in presence of NADPH by ECHO-MS analysis
- Type: ADME, Microsome
- Test settings: pooled liver microsomes, read-out: Stability
Answer format: numeric, % implied, no suffix.

Past entries and their recorded results:
CC(C)OC(=O)[C@H](C)N[P@](=O)(CO[C@H](C)Cn1cnc2c(N)ncnc21)Oc1ccc(C[C@H](NCCCc2ccccc2)C(=O)CC2CCCC2)cc1 : 1
CC(C)OC(=O)[C@H](C)N[P@](=O)(CO[C@H](C)Cn1cnc2c(N)ncnc21)Oc1ccc(C[C@H](NC(=O)OCc2ccccc2)C(=O)CC2CCCC2)cc1 : 0.04
CC(C)OC(=O)[C@H](C)N[P@](=O)(CO[C@H](C)Cn1cnc2c(N)ncnc21)Oc1ccccc1.CC(C)OC(=O)[C@H](C)N[P@](=O)(CO[C@H](C)Cn1cnc2c(N)ncnc21)Oc1ccccc1.O=C(O)/C=C/C(=O)O [TENOFOVIR ALAFENAMIDE FUMARATE] : 70
CC(C)OC(=O)[C@H](C)N[P@](=O)(CO[C@H](C)Cn1cnc2c(N)ncnc21)Oc1ccc(C[C@H](NC(=O)CCc2ccccc2)C(=O)OC2CCCC2)cc1 : 0.01
CC(C)OC(=O)[C@H](C)N[P@](=O)(CO[C@H](C)Cn1cnc2c(N)ncnc21)Oc1ccc(C[C@H](NC(=O)OCc2ccccc2)C(=O)OC2CCCC2)cc1 : 0.01

Consider the record given below.
Supply measured remaining at 0.5 h, 5 µM of CC(C)OC(=O)[C@H](C)N[P@@](=O)(CO[C@H](C)Cn1cnc2c(N)ncnc21)Oc1ccc(C[C@H](NC(=O)OCc2ccccc2)C(=O)OC2CCCC2)cc1 in your reply.
0.01
